B1: library; numbered along this chain (parent)
chain: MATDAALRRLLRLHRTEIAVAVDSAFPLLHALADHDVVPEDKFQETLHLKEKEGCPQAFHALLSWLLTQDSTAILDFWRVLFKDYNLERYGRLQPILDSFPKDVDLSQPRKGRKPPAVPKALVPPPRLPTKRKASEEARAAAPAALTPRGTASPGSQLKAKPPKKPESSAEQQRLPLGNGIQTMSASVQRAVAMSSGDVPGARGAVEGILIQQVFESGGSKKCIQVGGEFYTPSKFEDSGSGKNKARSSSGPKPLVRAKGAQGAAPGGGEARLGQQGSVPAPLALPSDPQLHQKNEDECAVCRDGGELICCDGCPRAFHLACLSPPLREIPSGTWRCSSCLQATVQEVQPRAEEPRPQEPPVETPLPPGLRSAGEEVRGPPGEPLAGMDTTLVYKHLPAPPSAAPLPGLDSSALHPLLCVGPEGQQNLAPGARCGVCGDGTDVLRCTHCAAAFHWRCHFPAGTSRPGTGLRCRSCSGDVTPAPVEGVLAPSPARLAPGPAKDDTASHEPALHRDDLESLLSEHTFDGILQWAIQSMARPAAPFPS

variants of: B1; assay: AIRE transcriptional activation functional score (insulin promoter-GFP; nonsense median 0, synonymous median 1) (normalised score); higher = higher AIRE activity (more reporter activation); details: with insulin promoter-GFP reporter in HEK293
Hi, to clarify the labels: Condition met covers AIRE transcriptional activation functional score from 0.7 upward, Condition not met covers anything below 0.7.

- Mutation Key: "P430H"
  Assigned Label: "Condition met"
- Mutation Key: "S491L"
  Assigned Label: "Condition met"
- Mutation Key: "S64P"
  Assigned Label: "Condition met"
- Mutation Key: "P254M"
  Assigned Label: "Condition met"
- Mutation Key: "L11G"
  Assigned Label: "Condition not met"
- Mutation Key: "H415M"
  Assigned Label: "Condition not met"

# bool: AIRE transcriptional activation functional score of "A170P" >= 0.7 Condition met

Determine whether this variant has AIRE transcriptional activation functional score no lower than 0.7: "L63H" Condition not met

Does the variant "E347G" have recorded AIRE transcriptional activation functional score that is 0.7 or more? Condition met

Please indicate if the recorded AIRE transcriptional activation functional score for "A144Q" meets or exceeds 0.7. Condition not met

Decide: AIRE transcriptional activation functional score of "H30I" >= 0.7? Condition not met

Does "D238C" have a reported AIRE transcriptional activation functional score of at least 0.7? Condition met

Could you please find out whether "P405K" has AIRE transcriptional activation functional score that meets 0.7 or exceeds it? Condition met

Given the entry "G242F" , answer whether its AIRE transcriptional activation functional score meets or surpasses 0.7. Condition met

Threshold query (AIRE transcriptional activation functional score >= 0.7) on "C457D" Condition not met

Origin of the recorded values: the supplement of paper PMC12667976
